# System: COLO 205
# Test: NCI tumour cell line growth inhibition, 48 h
Active and inactive are the calls of the source. No stated cut-off is given here; in the data, active = GI50 up to about 1.1 µM and inactive = higher.
Measured parameter: GI50

In the examples that follow, each entry is paired with its recorded GI50.
Compound	GI50
O=C1NCN(c2ccccc2)C12CCN(CCCN1CCN(CCOC(c3ccc(F)cc3)c3ccc(F)cc3)CC1)CC2	1.52 µM (inactive)
COc1cc(Br)c(CC2(C#N)c3ccccc3C3C(N2C(=O)c2ccccc2)C3(Cl)Cl)cc1OC (stereo not given)	10.4 µM (inactive)

Lookup result for COc1cc(/C=C2\[C@H]3c4c(c(OC)c(C)c(OC)c4OC)C[C@@H](C(=O)N2Cc2ccccc2)N3C(=O)OCC(C)C)c(OC)c(C)c1OC ; measured GI50: > 86.3 µM (inactive)

Recorded GI50 (compound Cc1ccc(NC(=O)CC(=O)N2N=C(c3ccccc3)C(/N=N/c3ccc(S(=O)(=O)CCOS(=O)(=O)O)cc3)C2=O)cc1 (stereo not given) ): > 100 µM (inactive)

====

# System: CCRF-CEM
# Test: NCI tumour cell line growth inhibition, 48 h
Active and inactive are the calls of the source. Rule as the data show it: active = GI50 up to about 1.1 µM and inactive = higher.
# output must be one of 1.0 (active), 0.0 (inactive)

Cpd smiles	Test system	Class label
CC1(C)CC(=O)C(CC2C(=O)c3ccccc3C2=O)C(=O)C1	CCRF-CEM	0.0
O=C1c2cccc3cccc(c23)C(=O)N1CCCNCCCCNCCCNCCCN1C(=O)c2cccc3cccc(c23)C1=O	CCRF-CEM	1.0

Ask | What is the recorded call for this molecule in the test? CC[N+](C)(CC)CCNC(=O)C(O)(c1ccccc1)c1ccccc1
Reply | 0.0

====

# System: SK-MEL-2
# Test: NCI tumour cell line growth inhibition, 48 h
The source made the active and inactive calls. Rule as the data show it: active = GI50 up to about 1.1 µM and inactive = higher.
The reader will find reported GI50 values listed item by item below.

Illustrative cases are given below, each with its answer.
Molecule	GI50
CCOC(=O)C1=C(C)N(NC(N)=O)C2(N)N(NC(N)=O)C(C)=C(C(=O)OCC)C12C(=O)OCC (configuration not stated)	> 100 µM (inactive)
C=CCNC(=S)N1CC(C)C(=O)Nc2cc(Cl)ccc21 (configuration not stated)	> 100 µM (inactive)
O=C(O)/C=C\C(=O)Nn1c(Cc2ccc(Cl)cc2)n[nH]c1=O	> 100 µM (inactive)
CCOC(=O)c1cnn2c1ncc1c(=O)n(NC(N)=O)ccc12	> 100 µM (inactive)
Fc1ccc(C(OCCN2CCC3CCC(C2)N3Cc2cc3ccccc3[nH]2)c2ccc(F)cc2)cc1 (configuration not stated)	1.71 µM (inactive)
CN(Nc1cc(=O)[nH]c(=O)[nH]1)c1ccccc1	> 100 µM (inactive)
N=C(N)NCCCC(=O)O	> 100 µM (inactive)
COC(=O)[C@H](CC(C)C)NC(=O)[C@H](Cc1ccccc1)N1CC2C=CC1C2 (some centres not stated)	> 100 µM (inactive)
CCn1c2c(c3ccccc31)[C@@H](c1ccc(Cl)cc1)CC1C(=O)N(c3ccccc3)C(=O)C21 (some centres not stated)	91.8 µM (inactive)
O=c1/c(=C/c2cccc3ccccc23)sc2nc3ccccc3n12	> 100 µM (inactive)

// field: GI50; key: O=[N+]([O-])c1ccc2nc(Nc3ccccc3)c(Nc3ccccc3)nc2c1 ; value = 2.15 µM (inactive)

molecule O=C1c2ccccc2C(=O)N1C(=S)c1ccccc1 , GI50 observed: > 100 µM (inactive)

====

# Tested on: HCC 2998
# Test: NCI tumour cell line growth inhibition, 48 h
Active and inactive are the calls of the source. Rule as the data show it: active = GI50 up to about 1.1 µM and inactive = higher.
Measured parameter: GI50

Compound	GI50
C=CCN1CCC(c2cc(C(=O)OCC)[nH]c2-c2cc(C)no2)C1=O (stereo not drawn)	> 100 µM (inactive)

Here is the next item to consider.
// COc1ccc(/C=C2\C(=O)N(C(=O)c3ccc(NC(C)=O)cc3)N=C2C)cc1OC : GI50 value = > 100 µM (inactive)

====

# Test system: SW-620
# Test: NCI tumour cell line growth inhibition, 48 h
Calls of active or inactive are those of the source. No stated cut-off is given here; in the data, active = GI50 up to about 1.1 µM and inactive = higher.
Measured parameter: GI50

// below: answered molecules
Molecule	GI50
O=C1C=C(NCCc2ccccc2)c2ccccc2C1=O	1.85 µM (inactive)
O=C(CCCN1CCC(Nc2ccc(F)cc2)(c2nnnn2C2CCCCC2)CC1)c1ccc(F)cc1	22.5 µM (inactive)

The value of GI50 measured for the molecule CCc1cc(Cc2ccc(C)c(NC(=O)C(=O)C3C(=O)NC(=O)NC3=O)c2CC)cc(C)c1NC(=O)C(=O)C1C(=O)NC(=O)NC1=O turned out to be > 100 µM (inactive)

Looking up COC(=O)c1c(OC(=O)c2ccccc2)noc1CC(=O)OC1C=CCCC1 (stereo unspecified) , I see its GI50 listed as > 100 µM (inactive)

According to the records, this molecule O=c1[nH]cc(OCC(F)(F)F)c(=O)[nH]1 displays GI50 of > 100 µM (inactive)

Record NCCS(=O)(=O)O . Reported GI50: > 100 µM (inactive)

====

# System: SNB-19
# Test: NCI tumour cell line growth inhibition, 48 h
Active and inactive are the calls of the source. No stated cut-off is given here; in the data, active = GI50 up to about 1.1 µM and inactive = higher.
Permitted responses: 1 (yes) = active, 0 (no) = inactive

Compound	Test system	Class label
CCOC(=O)c1ccc(N(C)Cc2cnc3nc(N)nc(N)c3n2)cc1	SNB-19	0 (no)
O=C1c2ccccc2C(=O)N1C(=S)c1ccccc1	SNB-19	0 (no)
O=C(COc1ccc(OCC(=O)N/N=C/c2ccc(-c3ccc(Cl)cc3Cl)o2)c(Cl)c1)N/N=C/c1ccc(-c2ccc(Cl)cc2Cl)o1	SNB-19	0 (no)
COC(=O)C1=C(C(=O)OC)SC2(S1)C(C(=O)OC)=C(C(=O)OC)Sc1c2ssc1=O	SNB-19	0 (no)
Nc1ccc(C(=O)NN2C(=O)[C@H](Cl)C2c2ccc(Cl)cc2)cc1 (stereo not given in full)	SNB-19	0 (no)

Ask | Identify the outcome logged in this assay for the compound shown: CC(C)(C)C1=NC(=S)SC2=NC(=O)C3(NN21)c1ccccc1-c1ccccc13
Reply | 0 (no)

Ask | Test call for this compound, please: COc1ccc(C(=O)Cc2ccc(Cl)cc2)cc1OC
Reply | 0 (no)

Ask | Fill in: this test's call for CC1=Cc2cccc(C)c2C(=O)C1=O [O-HIBISCANONE] is ___
Reply | 0 (no)

Ask | Field: outcome | Entry: O=P(Nc1ccccc1)(Oc1ccccc1)N1CCN(c2ccccc2)CC1 (stereo not given)
Reply | 0 (no)

Ask | Which result was noted for this compound in the test: Cc1cnc(NCCCN(C)C)c2c1[nH]c1ccc3cc(O)ccc3c12
Reply | 1 (yes)

Ask | Could you check what this test reported for C=CCC(C)(C(=O)NCCC)C(=O)c1ccccc1O (stereo not given) ?
Reply | 0 (no)

====

# Test system: COLO 205
# Test: NCI tumour cell line growth inhibition, 48 h
Activity calls are given as the source filed them. Cut-off read from the data, not from the text of the source: active = GI50 up to about 1.1 µM and inactive = higher.
Measured GI50 by item

Compound	GI50
CC(C)=CCCC(C)C1=C(O)C(=O)C(C)=CC1=O (stereo unspecified)	5.75 µM (inactive)
Cc1cc(N(CCC#N)S(=O)(=O)c2ccccc2)ccc1/C=C1N=C(/C=C/c2ccccc2)OC\1=O	> 100 µM (inactive)
COc1ccc(NC(=O)/C(=N\NC(=O)C[n+]2ccccc2)c2c(O)c3ccc(O)cc3oc2=O)c([N+](=O)[O-])c1	> 100 µM (inactive)
O=[N+]([O-])c1ccc(S(=O)(=O)n2c3ccc(Br)cc3c3nc4ccccc4nc32)cc1	> 100 µM (inactive)
O=C1CCC2CCC1C2 (stereo unspecified)	> 100 µM (inactive)
Cc1cc(Cl)ccc1NC1=NC(=O)C(CC(=O)Nc2cccc(Cl)c2)S1 (stereo unspecified)	72.1 µM (inactive)
CCOC(=O)c1cnn2c1ncc1c(=O)n(NC(N)=O)ccc12	> 100 µM (inactive)
Cc1c(/C=N/NC(=O)c2ccccc2)c(=O)n(-c2ccccc2)n1C	> 100 µM (inactive)
CC(C)(C)C1=NC(=S)SC2=NC(=O)C3(NN21)c1ccccc1-c1ccccc13	> 10 µM (inactive)
CN(N=O)C(=O)Nc1c[nH]c(=O)[nH]c1=O	> 100 µM (inactive)

GI50 of c1ccc(-c2cc(-c3cccs3)c(-c3cccs3)o2)cc1 , assay on COLO 205, is > 100 µM (inactive)

The observed GI50 for Cc1ccc2c(c1)OC1Nc3ccccc3C1=C2O (stereo unspecified) when tested with COLO 205 stands at 14.8 µM (inactive)

Measured GI50 for this entry Cc1cc(C)nc(NS(=O)(=O)c2ccc(NNc3c4ccccc4nc4c(C(=O)Nc5ccc(S(=O)(=O)Nc6ncccn6)cc5)cccc34)cc2)n1 on COLO 205: 27.1 µM (inactive)

Summary line: COC(=O)C1CCC(=O)N1C(=O)Cc1ccc(OC)cc1 (stereo unspecified) , COLO 205, reported GI50 = > 100 µM (inactive)

GI50 on COLO 205 for CC(=O)Nc1ccc(NCC(=O)Nn2cnc3ccc(S(=O)(=O)Nc4ccc(NC(C)=O)cc4)cc3c2=O)cc1 is > 100 µM (inactive)

Measured GI50 for this entry Cn1c(=O)c2nc(N3CCOCC3)cnc2n(C)c1=O on COLO 205: > 100 µM (inactive)
